Where do these numbers come from? They come from patent US20230257372A1.

biological target: human recombinant HDAC6 (Homo sapiens, UniProt Q9UBN7); construct: purchased Calbiochem Inc. 382180; assay: HDAC6 enzyme activity inhibition (HDAC Fluorimetric Drug Discovery Kit); assay type: biochemical; details: HDAC1 IC50 / HDAC6 IC50
Sequence (Q9UBN7 whole entry): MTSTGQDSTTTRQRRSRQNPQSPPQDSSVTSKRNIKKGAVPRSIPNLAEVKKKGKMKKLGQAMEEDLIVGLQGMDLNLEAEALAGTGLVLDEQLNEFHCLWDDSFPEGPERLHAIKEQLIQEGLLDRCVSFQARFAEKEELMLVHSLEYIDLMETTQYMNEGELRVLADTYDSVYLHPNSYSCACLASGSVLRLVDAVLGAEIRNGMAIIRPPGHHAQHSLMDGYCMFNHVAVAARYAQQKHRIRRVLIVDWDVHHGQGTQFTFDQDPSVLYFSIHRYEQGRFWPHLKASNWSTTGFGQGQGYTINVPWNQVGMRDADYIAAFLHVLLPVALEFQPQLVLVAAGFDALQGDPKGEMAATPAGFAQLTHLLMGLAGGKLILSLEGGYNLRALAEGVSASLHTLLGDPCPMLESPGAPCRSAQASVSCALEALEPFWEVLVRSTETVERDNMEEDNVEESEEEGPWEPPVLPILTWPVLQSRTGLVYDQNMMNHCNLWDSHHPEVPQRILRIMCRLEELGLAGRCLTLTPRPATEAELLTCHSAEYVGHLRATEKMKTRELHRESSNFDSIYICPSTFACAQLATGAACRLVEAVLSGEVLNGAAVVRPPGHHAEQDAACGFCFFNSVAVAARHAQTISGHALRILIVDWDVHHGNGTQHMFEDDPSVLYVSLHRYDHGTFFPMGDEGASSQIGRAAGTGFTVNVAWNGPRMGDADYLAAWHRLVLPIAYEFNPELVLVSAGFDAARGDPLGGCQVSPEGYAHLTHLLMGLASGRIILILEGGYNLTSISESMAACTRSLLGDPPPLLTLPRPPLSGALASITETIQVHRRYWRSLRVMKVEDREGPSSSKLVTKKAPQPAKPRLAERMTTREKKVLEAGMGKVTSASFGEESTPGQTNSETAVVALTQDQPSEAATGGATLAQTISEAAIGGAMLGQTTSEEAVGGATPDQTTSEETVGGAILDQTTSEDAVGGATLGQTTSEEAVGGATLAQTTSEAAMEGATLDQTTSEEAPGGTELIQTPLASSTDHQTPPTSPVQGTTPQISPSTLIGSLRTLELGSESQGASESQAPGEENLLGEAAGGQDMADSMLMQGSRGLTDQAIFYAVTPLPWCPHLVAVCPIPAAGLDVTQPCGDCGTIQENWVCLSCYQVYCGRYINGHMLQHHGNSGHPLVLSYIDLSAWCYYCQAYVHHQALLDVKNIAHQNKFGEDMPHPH
measurement-label: HDAC6 selectivity (fold)
Give the number; fold is assumed, so skip it.

Here is how some compounds turned out for HDAC6 selectivity (fold).
# compound, value-units, HDAC6 selectivity (fold)
data = [
    ("CC(C)N1C[C@@H]2C[C@H]1CN2c1cccc(-c2cn(Cc3ccc(-c4nnc(C(F)F)o4)cc3)nn2)c1 [Compound 4321]", "fold", 434),
    ("CN(C)CC(=O)Nc1cccc(-c2cn(Cc3ccc(-c4nnc(C(F)F)o4)cc3)nn2)c1 [Compound 4329]", "fold", 815),
    ("FC(F)c1nnc(-c2ccc(Cn3cc(C4CN(C5CCC5)C4)nn3)nc2)o1 [Compound 3954]", "fold", 116),
]

Lab note: need HDAC6 selectivity (fold) for FC(F)c1nnc(-c2ccc(Cn3cc(-c4cccc5cc[nH]c45)nn3)nc2)o1 [Compound 4071] on human recombinant HDAC6 (Homo sapiens, UniProt Q9UBN7), anyone have it?
347

Lab note: need HDAC6 selectivity (fold) for O=C(CO)N1CCC(c2cn(Cc3ccc(-c4nnc(C(F)F)o4)cn3)nn2)CC1 [Compound 3813] on human recombinant HDAC6 (Homo sapiens, UniProt Q9UBN7), anyone have it?
166

Lab note: need HDAC6 selectivity (fold) for CCN1CCc2cc(-c3cn(Cc4ccc(-c5nnc(C(F)F)o5)cc4F)nn3)ccc2C1 [Compound 4359] on human recombinant HDAC6 (Homo sapiens, UniProt Q9UBN7), anyone have it?
1182

Lab note: need HDAC6 selectivity (fold) for CN(C)CC(=O)Nc1cccc(-c2cn(Cc3ccc(-c4nnc(C(F)F)o4)cn3)nn2)c1 [Compound 4230] on human recombinant HDAC6 (Homo sapiens, UniProt Q9UBN7), anyone have it?
2173

Lab note: need HDAC6 selectivity (fold) for CC(C)N1CCN(C(=O)c2cccc(-c3cn(Cc4ccc(-c5nnc(C(F)F)o5)cn4)nn3)c2)CC1 [Compound 4448] on human recombinant HDAC6 (Homo sapiens, UniProt Q9UBN7), anyone have it?
2873

---

Molecular target: human recombinant HDAC6 (Homo sapiens, UniProt Q9UBN7)
Construct: purchased Calbiochem Inc. 382180
Experiment: HDAC6 enzyme activity inhibition (HDAC Fluorimetric Drug Discovery Kit)
Type: biochemical
Details: human recombinant HDAC6, same protocol as HDAC1
Procedure: An experiment was conducted to identify the selectivity of the compound represented by formula I of the present invention to HDAC6 through an experiment on HDAC1 and HDAC6 enzyme activity inhibition. […]
measurement-label: pIC50
As a rule, pIC50 stands for the negative log10 of the concentration, concentration in M.

# smiles, pIC50
data = [
    ("Fc1cc(-c2nnc(C(F)F)o2)cnc1Cn1cc(-c2ccc3cc[nH]c3c2)nn1", 7.34),
    ("Fc1cc(-c2nnc(C(F)F)o2)ccc1Cn1cc(-c2cccc(N3CCN(CC4CC(F)(F)C4)CC3)c2F)nn1", 7.17),
    ("CCN(CC)Cc1ccc(-c2cn(Cc3ccc(-c4nnc(C(F)F)o4)cc3F)nn2)cc1", 7.58),
]

Recorded pIC50 for Fc1cc(-c2nnc(C(F)F)o2)cnc1Cn1cc(-c2cccnc2)nn1 , please?
7.03

Recorded pIC50 for Fc1cc(-c2nnc(C(F)F)o2)ccc1Cn1cc(-c2ccc(CN3CCC3)c(Cl)c2)nn1 , please?
7.36
